target: CDK2 CCNA2 (human) (UniProt P20248+P24941)
protocol_text: radiometric filter-binding kinase assay
condition_set: compound 1.0 µM
observation_type: residual activity
Kindly format the answer as number then unit.

The following compounds have reported results that may help.
INSERT INTO measurements (compound, result) VALUES
  ('CC1=C(CO)C(=O)O[C@@H]([C@@H](C)[C@H]2CC[C@H]3[C@@H]4C[C@H]5O[C@]56[C@@H](O)C=CC(=O)[C@]6(C)C4CC[C@]23C)C1 (stereo partly specified)', '113%'),
  ('O=C(Nc1ccccc1-c1cn2c(CN3CCNCC3)csc2n1)c1cnc2ccccc2n1', '100%'),
  ('Cn1nc(Nc2ccc(F)cc2)c2c(N)ncnc21', '98%'),
  ('NC(=O)c1c(NC(=O)C2CC2)sc2c1CCCC2', '89%'),
  ('FC(F)(F)c1ccc(-c2ccc(Oc3cncc4sc(-c5nn[nH]n5)cc34)cc2)cc1', '79%');

Prompt line: Look up and state reported residual activity for O=c1c(O)c(-c2ccc(O)c(O)c2)oc2cc(O)c(O)c(O)c12
Response line: 89%

Prompt line: Look up and state reported residual activity for O=C(Nc1cccnc1)c1cc(-c2ccnc(F)c2)ccc1OCc1ccccc1
Response line: 113%

Prompt line: Look up and state reported residual activity for NC1(c2ccc(-c3nc4ccn5c(=O)[nH]nc5c4cc3-c3ccccc3)cc2)CCC1
Response line: 84%

Prompt line: Look up and state reported residual activity for COc1ccc(N(C(=O)Nc2c(C)cccc2C)c2cc(Nc3ccc(N4CCN(C)CC4)cc3)ncn2)c(OC)c1
Response line: 106%

Prompt line: Look up and state reported residual activity for COc1ccc(-n2ncc3cnc(Nc4cc(OC)c(OC)c(OCCCN5CCN(C)CC5)c4)nc32)cc1
Response line: 7%

Prompt line: Look up and state reported residual activity for Cc1cc(NC(=O)c2cccc(NC(=O)/C=C/CN(C)C)c2)ccc1Nc1nccc(-c2cccnc2)n1
Response line: 92%

Prompt line: Look up and state reported residual activity for Cc1ccc(=O)n(-c2ccccc2)c1
Response line: 103%

Prompt line: Look up and state reported residual activity for O=C1NC(=S)N[C@@H]1Cc1c[nH]c2ccccc12
Response line: 85%

Prompt line: Look up and state reported residual activity for CNc1nc(-c2ccc3c(N)n[nH]c3c2)cc(N2C[C@@H](C(=O)NC3CCCCC3)CC[C@H]2C)n1
Response line: 103%

Prompt line: Look up and state reported residual activity for N#Cc1c(C2CCNCC2)cc(-c2c(O)cccc2OCC2CC2)nc1N
Response line: 32%

These entries and their values trace back to the kinase profiling compilation of Christmann-Franck et al. (2016).
